// provenance: PubChem BioAssay AID1159580

method.description: chemical genetic growth profiling, strain panel (AID 1159580);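 note: tested at 20 µM; growth read once vehicle control cultures reached saturation at 30 °C; 1 = growth at the plate median or of vehicle wells; lower values mean less growth of the strain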
condition.set: S. cerevisiae deletion strains, growth OD, locus YDR162C, strain NBP2
The whole screen tested about 5,500 compounds, of which about 2,000 (36%) were called active. Roughly 18% stayed inconclusive and do not appear here. Cut-off read from the data, not from the text of the source: active = normalized growth mostly below about 0.91 (no sharp cut-off); inconclusive = no clear call, values can overlap the other calls; inactive = mostly above about 0.92. This is one part of the list.
The reply should name one outcome from true for active, false for inactive

Please review the entries below; each comes with its answer.
- molecule: "O=C(O[C@@H]1Cc2c(O)cc(O)cc2O[C@@H]1c1ccc(O)c(O)c1)c1cc(O)c(O)c(O)c1"
  label.class: "true"
- molecule: "COc1ccc2c(c1)OC/C(=C\\c1ccc(OC)c(O)c1)C2=O"
  label.class: "true"
- molecule: "Cc1[nH]c2ccccc2c1CN(C)C"
  label.class: "false"

Tell me the recorded outcome of this test for O=C(O[C@@H]1Cc2c(O)cc(O)cc2O[C@@H]1c1cc(O)c(O)c(O)c1)c1cc(O)c(O)c(O)c1 .
true

Which result was noted for this molecule in the test: C=CCc1ccc(O)c(OC)c1
false

Dear colleague, could you share the recorded outcome for CC(=O)S[C@@H]1CC2=CC(=O)CC[C@]2(C)[C@H]2CC[C@@]3(C)[C@@H](CC[C@@]34CCC(=O)O4)C12 (some centres not stated) when you have a moment?
false

====

Hi there, I'd appreciate the recorded normalized growth for every entry that follows.
method.description: chemical genetic growth profiling, strain panel (AID 1159580);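 note: tested at 20 µM; growth read once vehicle control cultures reached saturation at 30 °C; 1 = growth at the plate median or of vehicle wells; lower values mean less growth of the strain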
condition.set: S. cerevisiae deletion strains, growth OD, locus YER155C, strain BEM2, hits give low values
Among all 5,500 compounds or so, about 2,000 (36%) were called active. Roughly 18% stayed inconclusive and do not appear here. Some of the results follow.
One number for each entry.

Some solved cases for reference:
- compound: "CC(=O)S[C@@H]1CC2=CC(=O)CC[C@]2(C)[C@H]2CC[C@@]3(C)[C@@H](CC[C@@]34CCC(=O)O4)C12 (stereo partly specified)"
  assay.endpoint: "normalized growth"
  val: 1.01
- compound: "N[C@@H](Cc1ccc(N(CCCl)CCCl)cc1)C(=O)O"
  assay.endpoint: "normalized growth"
  val: 0.979
- compound: "COc1cc([C@@H]2c3cc4c(cc3C(OC3O[C@@H]5COC(C)O[C@H]5[C@H](O)[C@H]3O)C3COC(=O)[C@@H]32)OCO4)cc(OC)c1O (stereo partly specified)"
  assay.endpoint: "normalized growth"
  val: 0.981
- compound: "O=C(O)c1cc2cc(F)ccc2[nH]1"
  assay.endpoint: "normalized growth"
  val: 1
- compound: "CCC(C)C(=O)OC1CC2(C)C(c3ccoc3)OC(=O)CC23OC2(C)OC34C(OC(=O)C(C)C)C3(O)C(OC(=O)C5(C)OC5C)C5(C)CC3(O)C(C)(C5C(=O)OC)C14O2 (stereo unspecified)"
  assay.endpoint: "normalized growth"
  val: 1.02
- compound: "O=C(O)CCCc1ccccc1"
  assay.endpoint: "normalized growth"
  val: 0.975

For each entry beneath this line, provide reported normalized growth.
1. CCN(CC)Cc1ccc(Nc2ccnc3cc(Cl)ccc23)cc1O
2. COC(=O)C[C@H]1C2(C)CC34OC5(C)O[C@@]6([C@H](OC(C)=O)C(OC(C)=O)[C@]7(C)C(/C(=C(/O)C(C)C)C(=O)O[C@H]7c7ccoc7)[C@@]6(O5)[C@H](OC(C)=O)[C@@]3(O)C2OC(=O)C(C)C)[C@]14C (stereo partly specified)
3. NCCCS(=O)(=O)O
4. C[C@]12CCC(=O)C=C1C=CC1C2CC[C@@]2(C)C1CC[C@@]21CCC(=O)O1 (stereo partly specified)
5. Cn1c(=O)c2c(ncn2CC(O)CO)n(C)c1=O (stereo unspecified)
6. COC(=O)C[C@H]1C2(C)CC34OC5(C)O[C@@]6([C@H](OC)C(OC(=O)C(C)C)[C@]7(C)C(/C(=C(/OC)C(C)C)C(=O)O[C@H]7c7ccoc7)[C@@]6(O5)[C@H](OC)[C@@]3(OC)C2OC(C)=O)[C@]14C (stereo partly specified)

1. 1
2. 1.01
3. 0.988
4. 0.996
5. 1
6. 1

Dear reader, for each entry below, please note its normalized growth.
1. CCC(C)C(=O)O[C@@H]1C[C@@]2(C)[C@H](c3ccoc3)OC(=O)CC23OC2(C)OC34[C@H](OC(=O)C(C)C)[C@@]3(O)[C@@H](OC(=O)C5(C)OC5C)[C@@]5(C)C[C@]3(O)[C@@](C)([C@H]5CC(=O)OC)C14O2 (stereo partly specified)
2. O=S(=O)(O)CCS

1.01
1.01

Could you report normalized growth for every entry in the following list?
1. O=C(O)CCCc1ccc(N(CCCl)CCCl)cc1
2. COC(=O)CC1C2(C)CC34OC5(C)OC6(C7/C(=C(/O)C(C)C)C(=O)OC(c8ccoc8)C7(C)C(OC(=O)C(C)C)C(OC)C6(O5)C13C)C(OC)C4(OC)C2OC(C)=O (stereo unspecified)

[0.991, 1]

====

method.description: chemical genetic growth profiling, strain panel (AID 1159580);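 note: tested at 20 µM; growth read once vehicle control cultures reached saturation at 30 °C; 1 = growth at the plate median or of vehicle wells; lower values mean less growth of the strain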
condition.set: S. cerevisiae deletion strains, growth OD, locus YIL073C, strain SPO22, hits give low values
The whole screen tested about 5,500 compounds, of which about 2,000 (36%) were called active. Roughly 18% stayed inconclusive and do not appear here. This is one part of the list.
assay.endpoint: normalized growth

Solved entries:
- molecule: "C[C@]12CCC(=O)C=C1C=CC1C2CC[C@@]2(C)C1CC[C@@]2(O)CCC(=O)O (some centres not stated)"
  normalized growth: "0.975 (inactive)"
- molecule: "COc1ccc(-c2coc3cc(O)ccc3c2=O)cc1"
  normalized growth: "0.886 (inactive)"
- molecule: "CCC[C@H](N[C@@H](C)C(=O)N1[C@H](C(=O)O)C[C@@H]2CCCC[C@@H]21)C(=O)OCC"
  normalized growth: "1.03 (inactive)"
- molecule: "COc1ccc(OC)c(C(O)CNC(=O)CN)c1 (configuration not stated)"
  normalized growth: "0.985 (inactive)"
- molecule: "c1ccc2c(c1)sc1ccccc12"
  normalized growth: "0.951 (inactive)"

Respectfully, I request normalized growth for each entry included below.
1. C[C@@H]1CC(Cl)CC[C@H]1C(=O)OC(C)(C)C (some centres not stated)
2. NCCC(O)C(=O)NC1CC(N)C(OC2OC(CN)C(O)C(O)C2N)C(OC2OC(CO)C(O)C2O)C1O (configuration not stated)
3. CC[C@@]1(O)C[C@H](O[C@H]2C[C@H](N(C)C)[C@H](O)[C@H](C)O2)c2c(cc3c(c2O)C(=O)c2c(O)cccc2C3=O)[C@H]1C(=O)OC
4. C=C[C@@](C)(O)CCC1C(=C)CCC2[C@@](C)(CO)CCC[C@]12C (some centres not stated)
5. COc1ccccc1-c1coc2cc(O)ccc2c1=O
6. O=C(O)/C=C/c1ccc(O)c(O)c1

1. 0.96 (inactive)
2. 0.9 (inactive)
3. 0.538 (active)
4. 1.01 (inactive)
5. 1.05 (inactive)
6. 1.04 (inactive)

Field: normalized growth. Fill in for each record below.
1. CN1C2C[C@H](OC(=O)[C@H](CO)c3ccccc3)C[C@H]1[C@@H](O)C2
2. O=C(Oc1cc(O)cc2c1C[C@@H](OC(=O)c1cc(O)c(O)c(O)c1)[C@@H](c1cc(O)c(O)c(O)c1)O2)c1cc(O)c(O)c(O)c1
3. O=C(Oc1cc(OC(=O)c2ccccc2)c2c(c1)O[C@H](c1ccc(OC(=O)c3ccccc3)c(OC(=O)c3ccccc3)c1)[C@@H](OC(=O)c1ccccc1)C2)c1ccccc1
4. O=C(O[C@@H]1Cc2c(O)cc(O)cc2O[C@@H]1c1ccc(O)c(O)c1)c1cc(O)c(O)c(O)c1
5. COC(=O)[C@@H]1OC(=O)C2OC23[C@@]1(C)CCC1[C@]2(C)C(C[C@H](O)[C@]13C)C(C)(C)[C@H](OC(C)=O)C[C@@H]2OC(C)=O (some centres not stated)
6. C[n+]1c2cc(N)ccc2cc2ccc(N)cc21
7. CCN(CC)C(=O)N1CCN(C)CC1

1. 1.01 (inactive)
2. 0.241 (active)
3. 1.16 (inactive)
4. 0.665 (active)
5. 1.05 (inactive)
6. 0.534 (active)
7. 1.02 (inactive)

Provide the reported normalized growth of each entry below, same order.
1. COc1ccc2c(c1)OC1(O)COc3cc(OC)c(OC)cc3C1=C2 (configuration not stated)
2. CN1C2CCC1CC(OC(c1ccccc1)c1ccccc1)C2 (configuration not stated)
3. COc1cc(OC)c2c(c1)O[C@H](c1cc(OC)c(OC)c(OC)c1)[C@H](OC(=O)c1cc(OC)c(OC)c(OC)c1)C2
4. COC(=O)c1cc(=O)c(O)c2c(O)c(O)ccc2c1
5. Cn1c(=O)c2c(ncn2CC(O)CO)n(C)c1=O (configuration not stated)
6. COc1ccc2c(c1)OC/C(=C\c1ccc(OC)c(O)c1)C2=O

1: 0.895 (inactive); 2: 0.804 (inactive); 3: 0.995 (inactive); 4: 0.416 (active); 5: 0.908 (inactive); 6: 0.631 (active)

For each of the molecules below, state normalized growth.
1. CC[C@@]1(O)C[C@H](O)c2c(cc3c(c2O)C(=O)c2c(O)ccc(O)c2C3=O)[C@H]1C(=O)OC
2. O=c1cccc2ccc(O)c(O)c2c1O
3. CC[C@H]1OC(=O)[C@H](C)[C@@H](O[C@H]2C[C@@](C)(OC)[C@@H](O)[C@H](C)O2)[C@H](C)[C@@H](O[C@@H]2O[C@H](C)C[C@H](N(C)C)[C@H]2O)[C@](C)(OC)C[C@@H](C)C(=O)[C@H](C)[C@@H](O)[C@]1(C)O
4. C=C1CCC2[C@](C)(CO)[C@H](O)CC[C@@]2(C)[C@@H]1C/C=C1/C(=O)OC[C@H]1O (some centres not stated)

["0.593 (active)", "0.134 (active)", "0.985 (inactive)", "1.11 (inactive)"]
